Sourced from patent US8853258B2

# Test system: Klebsiella pneumoniae: Ciprofloxacin-resistant isolate, ESBL, clinical isolate (KP-3700)
# test-summary: MIC determination (CLSI), KP-3700
# Format: cell-based
Documented KP-3700 MIC across a set of molecules
recorded-metric: KP-3700 MIC (µg/mL)

{"molecule": "CC(CCc1ccc(-c2ccc(O)cc2F)cc1)(C(=O)NO)S(C)(=O)=O (stereo not shown)", "target-system": "Klebsiella pneumoniae: Ciprofloxacin-resistant isolate, ESBL, clinical isolate (KP-3700)", "readout-value": 8}
{"molecule": "CC(CCc1ccc(-c2ccc(OCCO)cc2)cc1)(C(=O)NO)S(C)(=O)=O (stereo not shown)", "target-system": "Klebsiella pneumoniae: Ciprofloxacin-resistant isolate, ESBL, clinical isolate (KP-3700)", "readout-value": 8}
{"molecule": "CC(C)c1cccc(-c2ccc(CCC(C)(C(=O)NO)S(C)(=O)=O)cc2)c1 (stereo not shown)", "target-system": "Klebsiella pneumoniae: Ciprofloxacin-resistant isolate, ESBL, clinical isolate (KP-3700)", "readout-value": 16}
{"molecule": "CC(CCc1ccc(-c2ccccc2C#N)cc1)(C(=O)NO)S(C)(=O)=O (stereo not shown)", "target-system": "Klebsiella pneumoniae: Ciprofloxacin-resistant isolate, ESBL, clinical isolate (KP-3700)", "readout-value": 32}
